Data origin, for the record: patent US7074743B1

System: Triticum aestivum
test: Damage to crop plant TRZAW, visual scoring vs untreated
Assay type: in vivo
experimental-parameters: in vivo
property-name: TRZAW % damage

• N#Cc1cc(I)c(O)c(I)c1 [B22), 4-hydroxy-3,5-di-iodobenzonitrile] = 0%
• CC(C)c1ccc(NC(=O)N(C)C)cc1 = 0%
• CCOC(=O)COC(=O)c1cc(Oc2ccc(C(F)(F)F)cc2Cl)ccc1[N+](=O)[O-] = 0%
• COC(=O)c1ccccc1S(=O)(=O)NC(=O)Nc1nc(C)nc(OC)n1 = 0%
